Reported GI50 by item:
# Test system: A498
# protocol notes: NCI tumour cell line growth inhibition, 48 h
Calls of active or inactive are those of the source. Rule as the data show it: active = GI50 up to about 1.1 µM and inactive = higher.
value type: GI50

1) CC(=O)OC(=O)O/C=C\CCl; > 100 µM (inactive)
2) CCC1CN2CCC1CC2 (stereo unspecified); > 100 µM (inactive)
3) CC(C)(C)[Si](C)(C)OCC1CCC(n2cnc3c(N)ncnc32)O1 (stereo unspecified); > 100 µM (inactive)
4) O=C(CCCCCCCCC(=O)NN1C(=O)/C(=C\c2ccc(O)c(O)c2)SC1c1c(O)ccc2ccccc12)NN1C(=O)C(=Cc2ccc(O)c(O)c2)SC1c1c(O)ccc2ccccc12 (stereo unspecified); 22.8 µM (inactive)
5) CC1C(c2ccccc2)OP(=O)(OC(C#N)c2ccccc2)N1C (stereo unspecified); > 100 µM (inactive)
6) CC1=C2C(=C[C@H]3[C@]4(C)CCCC(C)(C)[C@H]4CC[C@]34O[C@H]24)OC1=O; > 100 µM (inactive)
7) CC(=O)OCC12C(OC(C)=O)C[C@@H](C)C3(CC(c4ccoc4)OC3=O)C1CCC(OC(C)=O)C21CO1 (stereo partly specified); > 100 µM (inactive)
8) CN(CC(=O)O)S(=O)(=O)c1ccc(F)cc1; > 100 µM (inactive)
9) C=C(CCC/C(C)=C/C=C/[C@]1(C)CCCc2ccoc21)CC(=O)O; > 100 µM (inactive)
10) O=C(N/N=C\c1ccc(Cl)cc1)Nc1ccc2ccccc2c1; 30.9 µM (inactive)
11) CC(CCC(=O)O)(c1cc(Br)c(O)c(Br)c1)c1cc(Br)c(O)c(Br)c1; 30.5 µM (inactive)
12) CC(=O)N(CCN1C(=O)c2ccccc2C1=O)CCN1C(=O)c2ccccc2C1=O; > 100 µM (inactive)
13) CC1(C)CCCC2OC2CCC(C)(C)C1=O (stereo unspecified); > 100 µM (inactive)
14) Oc1cccc2cc(Br)cnc12; 27.5 µM (inactive)
15) O=c1c(Cc2cccc(Cc3c(O)oc4ccccc4c3=O)c2)c(O)oc2ccccc12; > 100 µM (inactive)
16) CC(C)CCC1CC2C(=O)N(c3ccccc3)C(=O)C2c2[nH]c3ccccc3c21 (stereo unspecified); 1.84 µM (inactive)
17) N#CSCC1COc2ccccc2O1 (stereo unspecified); > 10 µM (inactive)
18) COc1ccc(C=O)cc1Oc1ccc(C[C@H]2c3c(cc(OC)c4c3Oc3cc5c(cc3O4)CCN(C)C5=O)CCN2C)cc1; 20.1 µM (inactive)
19) C/C=C\C(CC(=O)NCCC1CN(C(=O)c2ccccc2)c2ccccc21)CC(=O)OC (stereo unspecified); > 100 µM (inactive)
20) c1ccc(CCCN2C3CCC2CN(CCOC(c2ccccc2)c2ccccc2)C3)cc1; 10.1 µM (inactive)
21) O=C(Nc1ccc(C2=NCCN2)cc1)c1cncc(C(=O)Nc2ccc(C3=NCCN3)cc2)c1; > 100 µM (inactive)
